# Tested on: T47D
# EXPERIMENTAL PROTOCOL: NCI tumour cell line growth inhibition, 48 h
The source made the active and inactive calls. No stated cut-off is given here; in the data, active = GI50 up to about 1.1 µM and inactive = higher.
TEST READOUT: GI50

Reported GI50 of O=C(Nc1ccn(C2CC(O)C(CO)O2)c(=O)n1)c1ccccc1 (stereo unspecified) : > 100 µM (inactive)

Give GI50 for each listed item.
1. N#CCN(Cc1ccccc1)[C@@H]1CCC[C@]1(O)C#Cc1ccc2c(c1)OCO2
2. C[Si](C)(c1ccccc1)[C@H]1CCCC=C1CCNC1c2ccccc2CCc2ccccc21
3. O=CNc1ccc2c(c1)C(=O)c1ccccc1-2
4. O=C1CC(C(OCc2ccccc2)C(OCc2ccccc2)C(COCc2ccccc2)OCc2ccccc2)CC(=O)N1 (stereo unspecified)

Result:
["16.6 µM (inactive)", "35.9 µM (inactive)", "76.9 µM (inactive)", "26.1 µM (inactive)"]

Each of the following entries comes with a recorded value; kindly state GI50 for each.
1. CC(=O)OCC1OC(O[C@@H]2C[C@H]3C(C)(C)[C@H](OC(C)=O)CC[C@]3(C)[C@H]3CC[C@]4(C)C(=CC[C@H]4[C@@H](C)C[C@@H](O)[C@H](O)C(C)(C)O)[C@@]32C)C(O)C(O)C1O (stereo partly specified)
2. CN(C(=O)OC(C)(C)C)[C@H]1CCCC[C@H]1N1CCCC1
3. CS(=O)(=O)Nc1ccc(Nc2ccnc3ccc4[nH]ccc4c23)cc1

Result:
["16.7 µM (inactive)", "> 100 µM (inactive)", "3.77 µM (inactive)"]

// each molecule listed below needs its GI50
1. O=C(NCCC(F)(F)C(F)(F)C(F)(F)C(F)(F)F)NC1OC(CO)C(O)C(O)C1O (stereo unspecified)
2. CSc1nc(C)c(Br)c(=O)n1C1OC(COC(C)=O)C(OC(C)=O)C(OC(C)=O)C1OC(C)=O (stereo unspecified)

Result:
1. > 100 µM (inactive)
2. > 100 µM (inactive)

Sample CCOC(=O)c1c(N)sc2c1CC(C)CC2 (stereo unspecified) ; GI50 observed: 32.5 µM (inactive)

* * *

# Tested on: NCI-H522
# EXPERIMENTAL PROTOCOL: NCI tumour cell line growth inhibition, 48 h
Active and inactive are the calls of the source. Cut-off read from the data, not from the text of the source: active = GI50 up to about 1.1 µM and inactive = higher.
TEST READOUT: GI50

Form: molecule = COc1ccc2c(c1)-c1c(c3cc(OC)ccc3n1CCCN(C)C)CC2 ; GI50 = 9.91 µM (inactive)

Report GI50 for each item below.
1. C/C(=N\NS(=O)(=O)c1ccc(C)cc1)C(CN1CCOCC1)C(c1ccccc1)c1c(O)c2ccccc2oc1=O (stereo unspecified)
2. CCNC(=O)C#CC(=O)NCC
3. OC12c3ccccc3C1CCCCC2N1CCCC1 (stereo unspecified)

Result:
1. 59.8 µM (inactive)
2. > 31.1 µM (inactive)
3. > 100 µM (inactive)

Please give GI50 for each item listed below.
1. CC(C)(C)OC(=O)NC(Cc1ccc(OCc2ccccc2)cn1)C(=O)O (stereo unspecified)
2. O=C(c1ccc(Cl)cc1)C(O)c1ccc(Cl)cc1 (stereo unspecified)

Result:
1: 67 µM (inactive); 2: 42 µM (inactive)

Hey, can you go through the list below and give me GI50 for every item?
1. O=c1c2cc([N+](=O)[O-])ccc2n2n1CCCC2
2. O=c1[nH]nc(Cc2ccccc2)n1/N=C/c1ccccc1Cl
3. COc1cc2c(cc1OC)CC(=O)Nc1cc(OC)c(OC)cc1CC2

Result:
> 100 µM (inactive)
> 100 µM (inactive)
17.3 µM (inactive)

Hey, quick one: what's GI50 for each of these?
1. CS(=O)(=O)Nc1ccc(Nc2ccnc3ccc4[nH]ccc4c23)cc1
2. CCOC(=O)C(NC(=O)c1ccccc1)(Nc1ccc(S(=O)(=O)Nc2cc(C)on2)cc1)C(F)(F)F (stereo unspecified)

Result:
1: 6.4 µM (inactive); 2: > 100 µM (inactive)

* * *

# Tested on: NCI-H522
# EXPERIMENTAL PROTOCOL: NCI tumour cell line growth inhibition, 48 h
The source made the active and inactive calls. Rule as the data show it: active = GI50 up to about 1.1 µM and inactive = higher.
Reply using exactly one outcome from YES for active, NO for inactive

As a guide, the following entries are already answered.
Ask: Field: outcome | Entry: Cc1nc2cc([N+](=O)[O-])ccc2c(NCCCN(C)C)c1C
Result: NO

Ask: Please share the test call associated with C[C@@H]1CC[C@@]2(OC1)O[C@H]1[C@@H](O)[C@H]3[C@@H]4CC[C@H]5C[C@@H](O[C@@H]6O[C@H](CO)[C@H](O[C@@H]7O[C@H](CO)C(O)[C@H](O[C@@H]8OC[C@@H](O)[C@H](O)[C@H]8O)[C@H]7O[C@@H]7O[C@H](CO)[C@H](O)[C@H](O[C@@H]8O[C@H](CO)[C@@H](O)[C@H](O)[C@H]8O)[C@H]7O)[C@H](O)[C@H]6O)[C@H](O)C[C@]5(C)[C@H]4CC[C@]3(C)[C@H]1[C@@H]2C (stereo not given in full) .
Result: NO

Ask: GET /call?item= COc1ccc2c(c1OC)C(=O)O[C@@H]2[C@H]1c2cc3c(cc2CCN1C)OCO3 returns the recorded outcome of this test.
Result: NO

Ask: Kindly provide the recorded test outcome for the following compound: CC1=C[C@@H](C)C[C@]2(C)CC[C@H](O2)[C@]23CC[C@](C)(C[C@H](O2)[C@@H]2O[C@@](C)(CC2=O)[C@@H](O)[C@H]2CC[C@@]4(CCC[C@@H](O4)[C@H](C)C(=O)O[C@H]4C[C@H]([C@]5(O)OCC[C@H](C)[C@@H]5O)O[C@H]4C=C1)O2)O3
Result: YES

In the following, a different compound is considered.
Ask: What call does the record list for O=S(=O)(O)c1c(/N=N/c2c(O)ccc3ccccc23)ccc2ccccc12 ?
Result: NO

* * *

# Tested on: K562
# EXPERIMENTAL PROTOCOL: NCI tumour cell line growth inhibition, 48 h
Activity calls are given as the source filed them. No stated cut-off is given here; in the data, active = GI50 up to about 1.1 µM and inactive = higher.
Exercise: for every item that follows, state its recorded GI50.

Field: example entries. Status: answers known.
Given item Cc1nc(O)nc2nc3ccc(Cl)cc3c(NC(C)(CO)CO)c12 , the value recorded as its GI50 is > 100 µM (inactive)

Note to self: GI50 recorded for O=c1[nH]c(=O)n(C2OC(CO)C(O)C2O)cc1OCc1ccccc1 (stereo unspecified) was > 73.3 µM (inactive)

Memo: CCN(CC)CCCC(C)Nc1ccnc2ccc3nn(C)nc3c12 (stereo unspecified) , reported GI50: 23.4 µM (inactive)

The molecule listed as Cc1ccc(/C=C2\NC(=S)NC2=O)cc1 has a reported GI50 of > 100 µM (inactive)

In plain terms, COc1ccc(N2C(=O)C3c4[nH]c5ccc(OC)cc5c4C4CCC(c5ccccc5)CC4C3C2=O)cc1 (stereo unspecified) has a documented GI50 of 7.67 µM (inactive)

Further cases:
Per the records, this molecule ( Cn1c2c(c3ccccc31)C1CCCCC1C1C(=O)NC(=O)C21 (stereo unspecified) ) has GI50 equal to 40.6 µM (inactive)

* * *

# Tested on: A549
# EXPERIMENTAL PROTOCOL: NCI tumour cell line growth inhibition, 48 h
Calls of active or inactive are those of the source. No stated cut-off is given here; in the data, active = GI50 up to about 1.1 µM and inactive = higher.
Would you mind answering with one of these outcomes? active, inactive

Reference set, count: 3
Ask: Short answer needed: outcome of this test for CN(C)CCNC1=C(Cl)C(=O)c2c(O)ccc(O)c2C1=O ?
Result: inactive

Ask: Would you mind telling me which call this test gave CCCCSC1=N/C(=C\c2ccccc2O)C(Cl)=N1 ?
Result: inactive

Ask: Lab log entry: CP1(=O)CCCCC1 — outcome as called in the assay?
Result: inactive

Okay, now this compound:
Ask: Please share the test call associated with CC1=NN(C(=O)Nc2ccc(Cl)cc2)C(=O)C2CCC(=O)N12 (stereo not given) .
Result: inactive

* * *

# Tested on: Hs-578T
# EXPERIMENTAL PROTOCOL: NCI tumour cell line growth inhibition, 48 h
The source made the active and inactive calls. Rule as the data show it: active = GI50 up to about 1.1 µM and inactive = higher.
// classify into active, inactive

Before answering, review these 8 worked examples.
Ask: Check the results log: what was the call for CCOC1CN=C(Nc2cccc3ccccc23)S1 (configuration not stated) ?
Result: inactive

Ask: Tell me the recorded outcome of this test for CNc1nc2n(CCO)c(-c3ccccc3)c(-c3ccccc3)nc-2c(=O)n1 .
Result: inactive

Ask: For this compound, state the assay outcome: Oc1cc(-c2cccc3ccccc23)nc2ncccc12
Result: active

Ask: Assay outcome for O=c1c(-c2ccccc2)c(SCCCN2CCN(c3cccc(Cl)c3)CC2)n(-c2ccccc2)c(=S)n1-c1ccccc1 : what was it?
Result: inactive

Ask: Could you please tell me the result logged for CC(=O)N1CCN(C23OC4(N5CCN(C(C)=O)CC5)C5C6CC(C7C6C4C72)C53)CC1 (configuration not stated) in this assay?
Result: inactive

Ask: Recorded call for CSc1ncc2c(n1)-c1ccccc1OC2N1CCOCC1 (configuration not stated) ?
Result: inactive

Ask: Hi team, can someone confirm the assay call for Cc1c(S(=O)(=O)N/C(=N\O)Nc2ccc(Cl)c(Cl)c2)sc2ccc(Cl)cc12 ?
Result: inactive

Ask: For O=C(c1ccc(Cl)cc1)C(O)c1ccc(Cl)cc1 (configuration not stated) , which call appears in the assay record?
Result: inactive

Now look at this entry.
Ask: // param item: C[C@@H]1CC[C@@]2(OC1)O[C@H]1[C@@H](O)[C@H]3[C@@H]4CC[C@H]5C[C@@H](O[C@@H]6O[C@H](CO)[C@H](O[C@@H]7O[C@H](CO)C(O)[C@H](O[C@@H]8OC[C@@H](O)[C@H](O)[C@H]8O)[C@H]7O[C@@H]7O[C@H](CO)[C@H](O)[C@H](O[C@@H]8O[C@H](CO)[C@@H](O)[C@H](O)[C@H]8O)[C@H]7O)[C@H](O)[C@H]6O)[C@H](O)C[C@]5(C)[C@H]4CC[C@]3(C)[C@H]1[C@@H]2C (some centres not stated) ; yields the recorded call
Result: inactive
